Data origin: patent US6136813A

- assay_summary: Blood levels of penciclovir in Pekin ducks after oral dosing with penciclovir or famciclovir
- Format: in vivo
- condition_description: duck, 100 mg/kg, 15 min, oral penciclovir 100 mg/kg, Duck No. 142
experimental_readout: concentration at 0.25 h (µM)
One number for each entry, in µM.

# concentration at 0.25 h lookup, item "Nc1nc2c(ncn2CCC(CO)CO)c(=O)[nH]1"
43

----------
- assay_summary: Blood levels of penciclovir in Pekin ducks after oral dosing with penciclovir or famciclovir
- Format: in vivo
- condition_description: duck, 100 mg/kg, 240 min, oral penciclovir 100 mg/kg, Duck No. 163
experimental_readout: concentration at 4 h (nM)
Numbers only, in nM.

Quick check: concentration at 4 h of "Nc1nc2c(ncn2CCC(CO)CO)c(=O)[nH]1" ?
2700

----------
- assay_summary: Blood levels of penciclovir in Pekin ducks after oral dosing with penciclovir or famciclovir
- Format: in vivo
- condition_description: duck, 25 mg/kg, 360 min, oral famciclovir 25 mg/kg, Duck No. 153
experimental_readout: concentration at 6 h

Form field: reported concentration at 6 h of CC(=O)OCC(CCn1cnc2cnc(N)nc21)COC(C)=O [famciclovir]
~500 nM

----------
- assay_summary: Blood levels of penciclovir in Pekin ducks after oral dosing with penciclovir or famciclovir
- Type: in vivo
- condition_description: duck, 5 mg/kg, 15 min, oral famciclovir 5 mg/kg, Duck No. 154
experimental_readout: concentration at 0.25 h

Which concentration at 0.25 h reading was recorded for the molecule "CC(=O)OCC(CCn1cnc2cnc(N)nc21)COC(C)=O" ?
5.1 µM

----------
- assay_summary: Blood levels of penciclovir in Pekin ducks after oral dosing with penciclovir or famciclovir
- Format: in vivo
- condition_description: duck, 20 mg/kg, 30 min, oral penciclovir 20 mg/kg, Duck No. 169
experimental_readout: concentration at 0.5 h (µM)
One number for each entry, in µM.

Can you look up the measured concentration at 0.5 h of "Nc1nc2c(ncn2CCC(CO)CO)c(=O)[nH]1" for me?
30

----------
- assay_summary: Blood levels of penciclovir in Pekin ducks after oral dosing with penciclovir or famciclovir
- Format: in vivo
- condition_description: duck, 25 mg/kg, 240 min, oral famciclovir 25 mg/kg, Duck No. 153
experimental_readout: concentration at 4 h (µM)
One number for each entry, in µM.

Please report the recorded concentration at 4 h for CC(=O)OCC(CCn1cnc2cnc(N)nc21)COC(C)=O [famciclovir] .
4.4

----------
- assay_summary: Blood levels of penciclovir in Pekin ducks after oral dosing with penciclovir or famciclovir
- Assay type: in vivo
- condition_description: duck, 100 mg/kg, 60 min, oral penciclovir 100 mg/kg, Duck No. 142
experimental_readout: concentration at 1 h
Value and unit, in that order.

Form field: reported concentration at 1 h of Nc1nc2c(ncn2CCC(CO)CO)c(=O)[nH]1 [penciclovir]
40 µM

----------
- assay_summary: Blood levels of penciclovir in Pekin ducks after oral dosing with penciclovir or famciclovir
- Format: in vivo
- condition_description: duck, 5 mg/kg, 30 min, sample collected at 32 min, oral famciclovir 5 mg/kg, Duck No. 154
experimental_readout: concentration at 32 min (µM)
Give bare numbers, in µM.

So what's the measured concentration at 32 min for this one? "CC(=O)OCC(CCn1cnc2cnc(N)nc21)COC(C)=O"
3.9

----------
- assay_summary: Blood levels of penciclovir in Pekin ducks after oral dosing with penciclovir or famciclovir
- Type: in vivo
- condition_description: duck, 100 mg/kg, 360 min, oral penciclovir 100 mg/kg, Duck No. 142
experimental_readout: concentration at 6 h (nM)
One number for each entry, in nM.

Which concentration at 6 h value is on record for "Nc1nc2c(ncn2CCC(CO)CO)c(=O)[nH]1" ?
1100
